Test system: RARb homodimer (NR concentration 270 nM)
Assay: PBM binding z-score (relative to random genomic background probes); higher = stronger binding; sequences stand for … in GC…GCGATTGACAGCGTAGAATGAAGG
Would you mind labelling by PBM binding z-score? At or over 1 is met, under is not met.

> print(dat)
                              residues  category
 1  AGAATGATGTTATTAAGATCAGGGAATTGCGGTC   not met
 2  TGTCAAAGTTGAAAGGTAACGTAAGTATCCACAC       met
 3  CCTTACGGGTCACTGATAGGTTATAGCATTTGGA       met
 4  CCAGACCGGTGAAAGGTAACTCAGTCTGGTACGC   not met
 5  ACAATGAGGTTACCAAAGATCAGGGAAACGCTTG       met
 6  AGAATGAGGTTATTAAGATCAGAGAATTGCGGTC   not met
 7  GGAACGAGGGCAAAGTTGCTAGCATCTGTCGACG       met
 8  CCTACTGGGCCCCGAAAGGTCATTGATTCAGTGA       met
 9  CAAACTAGGTCTCGAAAGGTCAAAGTCGAATGAC       met
10  ACAGACAGGTGAGTGAAGGTAGCTCAGCTGGACG   not met
11  GCTAGCAGGACATTTGGGTCACTCAATGACGGGC       met
12  CCTGCTAGGTCATGGTTAGCTAATCTACAGTATG       met
13  CCTTACGGGTCAAGGTTATAGGACGGGTGGTACG       met
14  AATACAGGATCATCGTAGGCCAGAGTACGCACAG   not met
15  CGTCCAAGGTCAGCAGGTCAGGGAAAGCGACGTG       met
16  GCTGCTAGGTCAATTGATGGTCAGCTAAAGCTCG       met
17  CGAACTAGGTCAAGGACAGTTAATCTCCGCACGC       met
18  TCTACTAGGTCAGTTGGTCAGCTAACGAGCTGCC       met
19  GCATTTAGGTAATACAAGGTGAAAGTCCGATTGT       met
20  TCATGTAGATCAGCAGGTTAAGAAAGCTGGCCAA   not met
21  TCATGTAGGTAATACAGGTGAAAGTCGGCATCTA   not met
22  CAAACTAGGTCACAGAGGTGAAAGTCCGTGCGTA       met
23  TCTAGTTGGTCAAAGGTTACACACTCGAAATGCG       met
24  CCTAGCAGGCCAATCTGGATCACTCAAGGCTTGA   not met
25  ATACCAAGGTGATCCTGAGGTCGTTGATACTAAC       met
26  ATACCAAGCTGATCGTGAGGTCGTTGATACTAAC       met
27  CCGACTAGGGCAGAAAGGTTACCATACCATCCGG       met
28  GCTAGTTGGTAAGTAAAAGGTCACACACCGGTCG       met
29  CCGACTGGGGCATAAGGGTACCATAAGCCAGCCC   not met
30  ATATGTAGGTTTCATCCGGGTCATTCAGGCTATG       met
31  AGAATGAGGTTAAGATCATGGAAACAGAATACAT   not met
32  ATCTCTAGATAAGACTCAGTTCAGTGAAGAACGC   not met
33  TCTCGGAGGACACGAAGGTCAGATCTTTCCAGAG       met
34  ATCTGTAGGTAAAGTTCAGTGAAAGATCGATAGA       met
35  AGAATGAGGTTATTAAGATCAGGCAATTGCGGTC   not met
36  CGTCCAAGGTCAATGCTAGGTCAGTCAAAGCATT       met
37  TCATATAGGTAAATAGGTGAAAGTCCGTAAGTTA       met
38  CAAATTAGGTCAAAGGTCAAAGTCGAGCCAACCA       met
39  CCTTACGGGTCACTGACAGGTTATAGAATTTGGA       met
40  ACTATTAGTTGAGACGAGGGCAAGCGATAGGTTG       met
41  AATACAGGGTCACTAGGCCAGAGTAGGTACGAAT       met
42  CCTATTAGTTGACCATAAGGGCAACCTAAGCTCG       met
43  TCATATAGGTCAAGGTGAAAGTCGAACGATATGA       met
44  ACTAGCAGGCTAAGGGTCACTCAAGATTAGTCCG       met
45  TCATATAGGTAAAAGGGGAAAGTCGGTGTGGTAA   not met
46  CGAACTAGGTCACGAAAGGTCAAAGTCGAATGAC       met
47  TGAATGAGGTTAAAGATCAGAGAACGTGGCGTCG   not met
48  CCTACTGGGCCATCAAGTCATTGATATCAACGTT   not met
49  CGGACGAGGGCATGAGTTGATAGCAAATGCCGAT   not met
50  GCGACTGGGGCATCAGCAGGTTTCCATAACTTAA   not met
